Reference source: paper PMC9322071

Attribute: EC50
- System: CHIKV Indian Ocean strain 899
- assayMethodText: Anti-CHIKV CPE assay on Vero cells
- conditionSet: Chikungunya virus, Vero
attributeMeasured: EC50 (µM)

molecule="O=c1oc2cc(OS(=O)(=O)c3ccc(Br)cc3)ccc2cc1CSc1nc2ccccc2c(=O)[nH]1 [Compound 10d]" attributemeasured=EC50 qualifiersymbol== testresult=18.4
molecule="O=c1oc2cc(OS(=O)(=O)c3ccccc3[N+](=O)[O-])ccc2cc1CSc1nc2ccccc2c(=O)[nH]1 [Compound 10e]" attributemeasured=EC50 qualifiersymbol== testresult=12.7
molecule="O=c1oc2cc(OS(=O)(=O)c3ccccc3)ccc2cc1CSc1nc2ccccc2c(=O)[nH]1 [Compound 10a]" attributemeasured=EC50 qualifiersymbol== testresult=7.84
molecule="COc1ccc(S(=O)(=O)Oc2ccc3cc(CSc4nc5ccccc5c(=O)[nH]4)c(=O)oc3c2)cc1 [Compound 10b]" attributemeasured=EC50 qualifiersymbol=> testresult=186
molecule=O=c1oc2cc(OS(=O)(=O)c3ccccc3)ccc2cc1CSc1nc(Nc2ccccc2)c2ccccc2n1 attributemeasured=EC50 qualifiersymbol== testresult=3.84
molecule="O=c1oc2cc(OS(=O)(=O)c3ccc([N+](=O)[O-])cc3)ccc2cc1CSc1nc2ccccc2c(=O)[nH]1 [Compound 10f]" attributemeasured=EC50 qualifiersymbol=> testresult=186
molecule="O=c1oc2cc(OS(=O)(=O)c3ccc(F)cc3)ccc2cc1CSc1nc2ccccc2c(=O)[nH]1 [Compound 10c]" attributemeasured=EC50 qualifiersymbol== testresult=6.46

* * *

Attribute: CC50
- assayMethodText: Cytotoxicity assay (metabolic activity of compound-treated cells)
- conditionSet: African green monkey
attributeMeasured: CC50 (µM)

compound="O=c1oc2cc(OS(=O)(=O)c3ccccc3)ccc2cc1CSc1nc2ccccc2c(=O)[nH]1 [Compound 10a]" testresult=40.1
compound=O=c1oc2cc(OS(=O)(=O)c3ccccc3)ccc2cc1CSc1nc(Nc2ccccc2)c2ccccc2n1 testresult=72.3
compound="O=c1oc2cc(OS(=O)(=O)c3ccccc3[N+](=O)[O-])ccc2cc1CSc1nc2ccccc2c(=O)[nH]1 [Compound 10e]" testresult=64.3
compound="O=c1oc2cc(OS(=O)(=O)c3ccc(F)cc3)ccc2cc1CSc1nc2ccccc2c(=O)[nH]1 [Compound 10c]" testresult=59.7
compound="O=c1oc2cc(OS(=O)(=O)c3ccc(Br)cc3)ccc2cc1CSc1nc2ccccc2c(=O)[nH]1 [Compound 10d]" testresult=62.6
